- TEST_TARGET: human PCSK9 (PCSK9 antigen, SEQ ID NO. 53) (human, UniProt A8T644 31-152; Q8NBP7 153-692, Biotin-labelled on amines in the MSD-SET and sorting experiments; positions not given.); further: unit not given here
- RUN_DESCRIPTION: cell-based or functional assay
ASSAY_READOUT: BODIPY-LDL uptake by HepG2 cells, fluorescence, 4.2 nM, replicate 1

BINDER	RESULT_VALUE
Lodelcizumab (antibody, V domains shown) VH: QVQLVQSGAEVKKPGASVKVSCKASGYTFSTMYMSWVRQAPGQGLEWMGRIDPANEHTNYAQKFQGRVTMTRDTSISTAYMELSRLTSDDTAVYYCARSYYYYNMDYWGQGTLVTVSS VL: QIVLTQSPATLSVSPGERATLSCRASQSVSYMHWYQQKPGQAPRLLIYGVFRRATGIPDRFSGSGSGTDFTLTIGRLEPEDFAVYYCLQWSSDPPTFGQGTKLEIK	0.318
ADI-02396 (antibody, human IgG2, kappa, V domains shown, IgG; also called parent antibody) VH: QLQLQESGPGLVKPSETLSLTCTVSGGSISSSSYYWGWIRQPPGKGLEWIGSIYYSGSTYYNPSLKSRVTISVDTSKNQFSLKLSSVTAADTAVYYCAREGSGVVPAAGPNWFDPWGQGTLVTVSS VL: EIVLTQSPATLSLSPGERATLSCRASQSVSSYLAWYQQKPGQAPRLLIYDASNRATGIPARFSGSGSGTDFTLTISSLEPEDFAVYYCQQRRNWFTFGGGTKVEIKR	0.366
Evolocumab (antibody, V domains shown) VH: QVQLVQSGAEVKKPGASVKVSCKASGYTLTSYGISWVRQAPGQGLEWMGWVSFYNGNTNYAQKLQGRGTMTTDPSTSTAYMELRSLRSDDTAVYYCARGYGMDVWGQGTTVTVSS VL: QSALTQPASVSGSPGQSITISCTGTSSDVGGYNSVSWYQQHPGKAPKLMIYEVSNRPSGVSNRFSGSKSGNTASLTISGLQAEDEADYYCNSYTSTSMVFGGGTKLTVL	0.351
